Study the reported IC50 values for NT-3 growth factor receptor (Homo sapiens) given below; they originate from different publications.

Look over these answered cases.
| chem-smiles | IC50 |
| --- | --- |
| Fc1cc(F)cc(COc2ccc3[nH]nc(C#Cc4ccccn4)c3c2)c1 | 0.02 µM |
| CCc1ccc(Nc2ncc(Cc3c[nH]c4ncc(C)cc34)cn2)cc1 | < 0.01 µM |
| CC(C)NC(=O)[C@H]1CC[C@@H](n2/c(=N/C(=O)c3cc(F)cc(F)c3)[nH]c3ccc(CN4CCC(C(C)(C)O)CC4)cc32)CC1 | 0.001 to 0.1 µM |
| COc1cc(NC(=O)c2cccc(C#Cc3cnc4ccc(N5CCOCC5)nn34)c2C)cc(C(F)(F)F)c1 | 0.01 to 0.1 µM |

Which IC50 is listed for Cc1c(C#Cc2cnc3cccnn23)cccc1C(=O)Nc1cc(Cl)cc(C(F)(F)F)c1 ? 0.1 to 1 µM

Which IC50 is listed for Cc1cc(NC(=O)c2cccc(C#Cc3cnc4ccc(N5CCOCC5)nn34)c2C)cc(C(F)(F)F)c1 ? 0.01 to 0.1 µM

----------
Study the reported IC50 values for NT-3 growth factor receptor (Homo sapiens, UniProt Q16288) given below; they originate from different publications.

Look over these answered cases.
| chem-smiles | IC50 |
| --- | --- |
| CCn1cc(Nc2ncc(Cc3c[nH]c4ncc(C)cc34)cn2)cn1 | < 1000 nM |
| Cc1c(C#Cc2cnc3ccc(N4CCOCC4)nn23)cccc1C(=O)Nc1cccc(C(F)(F)F)c1 | 10 to 100 nM |
| Cc1c(C#Cc2cnc3ccc(N4CCOCC4)nn23)cccc1C(=O)Nc1cc(F)cc(C(F)(F)F)c1 | 10 to 100 nM |

API: value(readout= IC50, system= NT-3 growth factor receptor (Homo sapiens, UniProt Q16288), query= Cc1c(C#Cc2cnc3ncccn23)cccc1C(=O)Nc1cc(CN2CCN(C)CC2)cc(C(F)(F)F)c1 ) 100 to 1000 nM

API: value(readout= IC50, system= NT-3 growth factor receptor (Homo sapiens, UniProt Q16288), query= C[C@@H](Oc1ccc2ncc(-c3ccc(N4C[C@@H](N)CC4=O)nc3)n2n1)c1cccc(F)c1 ) 5 to 10 nM

API: value(readout= IC50, system= NT-3 growth factor receptor (Homo sapiens, UniProt Q16288), query= Cc1cnc2[nH]cc(Cc3cnc(Nc4cc(-c5ccc(F)cc5)n[nH]4)nc3)c2c1 ) < 100 nM

----------
Study the reported IC50 values for UniProt Q16288 given below; they originate from different publications.

| chem-smiles | assay-metric | meas-value |
| --- | --- | --- |
| COc1ccc(Nc2ccc(Cc3c[nH]c4ncc(C)cc34)c(F)n2)cn1 | IC50 | < 100 nM |
| CN(Cc1cccc(F)c1)c1ccc2ncc(-c3ccc(N4C[C@@H](N)CC4=O)cc3)n2n1 | IC50 | < 5 nM |

Now let's try a different one.
API: value(readout= IC50, system= UniProt Q16288, query= Cc1cn(-c2cc(NC(=O)c3cccc(C#Cc4cnc5ccc(N6CCC(O)CC6)nn45)c3C)cc(C(F)(F)F)c2)cn1 ) < 10 nM
